Hey, just so you know, these numbers are from ChEMBL document CHEMBL1127804.

Catalogue of IC50 readings, one per entry.
biological target: Dihydrofolate reductase (Homo sapiens); assay: Tested for inhibitory concentration against human dihydrofolate reductase(DHFR)
Sequence (P00374 whole entry): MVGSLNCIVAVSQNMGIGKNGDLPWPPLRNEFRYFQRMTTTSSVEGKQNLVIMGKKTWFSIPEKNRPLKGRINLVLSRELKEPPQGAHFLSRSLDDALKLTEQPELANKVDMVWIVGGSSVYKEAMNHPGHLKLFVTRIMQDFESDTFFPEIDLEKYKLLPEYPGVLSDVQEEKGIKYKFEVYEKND
Measured endpoint: IC50

- Nc1nc(N)c2nc(CNc3c(Cl)cc(C(=O)NC(CCCNC(=O)c4ccccc4C(=O)O)C(=O)O)cc3Cl)cnc2n1 (stereo not drawn): 10.2 nM
- Nc1nc(N)c2nc(CNc3ccc(C(=O)NC(CCNC(=O)c4ccccc4C(=O)O)C(=O)O)cc3)cnc2n1 (stereo not drawn): 11.6 nM
- Nc1nc(N)c2nc(CNc3ccc(C(=O)NC(CCCNC(=O)c4ccccc4C(=O)O)C(=O)O)cc3)cnc2n1 (stereo not drawn): 12.2 nM

* * *

test system: SCC-25; test: Tested for inhibitory concentration against human SCC25 cell line; format: functional, cell-based
Catalogue of log10 IC50 readings, one per entry.
Measured endpoint: log10 IC50 (log10 of the value in nM)

- Nc1nc(N)c2nc(CNc3ccc(C(=O)NC(CCCCNC(=O)c4ccccc4C(=O)O)C(=O)O)cc3)cnc2n1 (stereo unspecified): 1.25
- Nc1nc(N)c2nc(CNc3c(Cl)cc(C(=O)NC(CCCNC(=O)c4ccccc4C(=O)O)C(=O)O)cc3Cl)cnc2n1 (stereo unspecified): 0.40
- Nc1nc(N)c2nc(CNc3ccc(C(=O)NC(CCNC(=O)c4ccccc4C(=O)O)C(=O)O)cc3)cnc2n1 (stereo unspecified): 1.11
- Nc1nc(N)c2nc(CNc3ccc(C(=O)N[C@@H](CCC(=O)O)C(=O)O)cc3)cnc2n1: 0.84
- COc1cc(NCc2ccc3nc(N)nc(N)c3c2C)cc(OC)c1OC [TRIMETREXATE]: 0.90
- Nc1nc(N)c2nc(CNc3ccc(C(=O)NC(CCCNC(=O)c4ccccc4C(=O)O)C(=O)O)cc3)cnc2n1 (stereo unspecified): 0.00
